// data source = patent US9745287B2

system_under_test: hNav1.7 (Homo sapiens (Human), UniProt Q15858)
Sequence (Q15858 other isoform, or with tags, fused parts or gaps): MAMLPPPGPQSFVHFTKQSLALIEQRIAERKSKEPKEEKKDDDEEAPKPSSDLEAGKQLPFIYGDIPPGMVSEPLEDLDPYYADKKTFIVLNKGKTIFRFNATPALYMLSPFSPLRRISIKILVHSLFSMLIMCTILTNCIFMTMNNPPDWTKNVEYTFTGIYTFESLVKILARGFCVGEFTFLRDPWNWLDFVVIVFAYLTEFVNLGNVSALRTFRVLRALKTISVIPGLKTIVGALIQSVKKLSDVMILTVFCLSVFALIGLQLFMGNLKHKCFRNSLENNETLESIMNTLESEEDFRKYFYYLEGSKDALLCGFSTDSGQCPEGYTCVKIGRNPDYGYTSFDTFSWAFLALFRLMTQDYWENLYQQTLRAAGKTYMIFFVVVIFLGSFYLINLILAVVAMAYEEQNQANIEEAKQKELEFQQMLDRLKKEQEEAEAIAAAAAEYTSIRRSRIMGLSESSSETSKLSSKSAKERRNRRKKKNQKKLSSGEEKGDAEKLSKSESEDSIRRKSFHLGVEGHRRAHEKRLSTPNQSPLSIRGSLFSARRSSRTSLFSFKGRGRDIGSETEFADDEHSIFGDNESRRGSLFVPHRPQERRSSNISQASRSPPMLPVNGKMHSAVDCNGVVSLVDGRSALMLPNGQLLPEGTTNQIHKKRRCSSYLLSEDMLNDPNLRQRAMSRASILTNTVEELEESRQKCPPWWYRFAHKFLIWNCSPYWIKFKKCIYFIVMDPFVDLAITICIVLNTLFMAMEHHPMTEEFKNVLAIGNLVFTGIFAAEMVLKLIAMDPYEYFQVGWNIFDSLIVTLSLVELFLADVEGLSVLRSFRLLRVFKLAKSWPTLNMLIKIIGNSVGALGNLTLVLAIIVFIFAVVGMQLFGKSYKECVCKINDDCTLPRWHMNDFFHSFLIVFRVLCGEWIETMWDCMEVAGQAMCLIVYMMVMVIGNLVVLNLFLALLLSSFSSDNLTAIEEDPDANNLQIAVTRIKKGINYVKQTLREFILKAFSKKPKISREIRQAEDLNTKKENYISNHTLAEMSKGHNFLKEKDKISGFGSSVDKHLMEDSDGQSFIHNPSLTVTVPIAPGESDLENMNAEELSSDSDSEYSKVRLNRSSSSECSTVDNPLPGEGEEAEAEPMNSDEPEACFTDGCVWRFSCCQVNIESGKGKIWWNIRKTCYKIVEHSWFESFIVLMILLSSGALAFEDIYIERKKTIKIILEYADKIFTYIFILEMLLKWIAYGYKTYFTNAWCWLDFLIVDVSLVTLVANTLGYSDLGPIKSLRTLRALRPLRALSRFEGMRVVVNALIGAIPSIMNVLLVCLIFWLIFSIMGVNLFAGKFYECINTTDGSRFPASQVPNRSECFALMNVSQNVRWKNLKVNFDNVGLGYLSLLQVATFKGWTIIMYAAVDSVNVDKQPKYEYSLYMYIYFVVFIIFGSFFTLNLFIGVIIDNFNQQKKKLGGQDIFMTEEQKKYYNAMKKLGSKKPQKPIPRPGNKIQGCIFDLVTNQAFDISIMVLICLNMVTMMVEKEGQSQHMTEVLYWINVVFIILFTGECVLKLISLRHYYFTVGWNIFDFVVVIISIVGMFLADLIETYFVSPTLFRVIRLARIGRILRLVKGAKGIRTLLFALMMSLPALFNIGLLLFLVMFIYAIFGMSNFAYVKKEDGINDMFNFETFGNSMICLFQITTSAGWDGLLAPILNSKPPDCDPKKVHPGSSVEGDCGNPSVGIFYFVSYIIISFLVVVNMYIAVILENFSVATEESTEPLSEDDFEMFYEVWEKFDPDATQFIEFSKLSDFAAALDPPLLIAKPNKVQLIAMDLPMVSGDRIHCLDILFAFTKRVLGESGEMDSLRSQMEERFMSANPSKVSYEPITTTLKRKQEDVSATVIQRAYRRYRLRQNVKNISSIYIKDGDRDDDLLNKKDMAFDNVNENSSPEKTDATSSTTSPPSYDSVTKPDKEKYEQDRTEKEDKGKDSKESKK
test_details: Electrophysiology (EP) assay, whole-cell patch clamp in hNav1.7 expressing HEK-293 cells
Type: cell-based
experimental_context: affinity for inactivated state of hNav1.7, HEK-293; read-out: Nav1.7 Activity (μM) EP assay Ki
quantity_kind: Ki (µM)
Numbers only, in µM.

// below: answered molecules
molecule	Ki [µM]
NC(=O)c1cc(CN[C@@H]2CCNC2=O)nc(C2=CCC(Oc3ccc(C(F)(F)F)cc3)CC2)n1 (stereo partly shown)	0.117
O=C1NCC[C@@H]1NCc1cc([C@H](O)CO)nc(-c2ccc(Oc3ccc(OC(F)(F)F)cc3)cc2)n1	2.68
NC(=O)c1cc(CN[C@@H](CO)C(N)=O)nc(C2=CCC(Oc3ccc(C(F)(F)F)cc3)CC2)n1 (stereo partly shown)	0.524

API: the following record is the query input.
Request: Form: Entry = `O=C1CN(Cc2cc([C@H](O)CO)nc(-c3ccc(Oc4ccc(OC(F)(F)F)cc4)cc3)n2)CCN1` | System = hNav1.7 (Homo sapiens (Human), UniProt Q15858) | Ki = ____
Response: 0.875
